Method Description: chemical genetic growth profiling, strain panel (AID 1159580);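 further: tested at 20 µM; growth read once vehicle control cultures reached saturation at 30 °C; lower values mean less growth of the strain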
Protocol Conditions: S. cerevisiae deletion strains, growth OD, locus YPL153C, strain RAD53
About 2,000 (36%) of roughly 5,500 compounds were called active. Inconclusive results (about 18%) are left out. No stated cut-off is given here; in the data, active means normalized growth mostly below about 0.91 (no sharp cut-off); inconclusive means no clear call, values can overlap the other calls; inactive means mostly above about 0.92. This is one part of the list.
Classes used: active, inactive

| Compound | Classification |
| --- | --- |
| CC1=CC(=O)N(c2ccc(F)c(Cl)c2)C1=O | active |
| CC1CCC(C(C)C)C(N(Cc2ccccc2)C(=O)c2ccccc2)C1 (centres undefined) | inactive |
| N#Cc1ccc(Oc2sccc2[N+](=O)[O-])cc1 | inactive |
| CCOC(=O)c1sc(S(C)=NC(=O)Nc2ccc(Cl)cc2)c2c1CCC=C2 (centres undefined) | inactive |
